Assign IC50 (TCDC) / IC50 (Substance) to each entry below.
Target: Na^+ -dependent bile acid transport system (Oryctolagus cuniculus, UniProt Q28727)
Construct: Brush border membrane vesicles from the intestinal cells of the small intestine were prepared by the so-called Mg^2+ precipitation method; from tissue; host or cells: terminal ileum (terminal 7/10 of small intestine) of male New Zealand rabbits, brush border membrane vesicles
Sequence (Q28727 whole entry): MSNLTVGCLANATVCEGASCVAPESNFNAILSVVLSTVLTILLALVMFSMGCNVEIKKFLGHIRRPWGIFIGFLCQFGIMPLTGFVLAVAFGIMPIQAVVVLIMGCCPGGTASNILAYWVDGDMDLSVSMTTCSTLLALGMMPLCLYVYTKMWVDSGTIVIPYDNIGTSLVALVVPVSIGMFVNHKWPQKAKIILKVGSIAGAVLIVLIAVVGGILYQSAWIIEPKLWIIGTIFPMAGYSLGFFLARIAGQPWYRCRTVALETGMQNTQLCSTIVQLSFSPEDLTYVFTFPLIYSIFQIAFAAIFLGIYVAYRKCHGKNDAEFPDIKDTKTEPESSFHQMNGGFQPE
Assay: inhibition of Na+-dependent [3H]-taurocholate absorption in brush border membrane vesicles of rabbit ileum (membrane filtration technique)
Type: biochemical
Settings: quotient of IC50 of the standard taurochenodeoxycholate (TCDC) and of the substance; 50 μM taurocholate, customarily 1 minute, pH 7.4
Enter a number only.

Which IC50 (TCDC) / IC50 (Substance) reading was recorded for the molecule C[C@H](CCC(=O)O)[C@H]1CC[C@H]2[C@@H]3[C@H](O)C[C@@H]4C[C@@H](OCCCCCCNC(=O)c5cc(C(=O)NCCCCCCO[C@H]6CC[C@@]7(C)[C@@H](C6)C[C@@H](O)[C@@H]6[C@@H]7C[C@H](O)[C@]7(C)[C@@H]([C@H](C)CCC(=O)O)CC[C@@H]67)cc(C(=O)NCCCCCCO[C@H]6CC[C@@]7(C)[C@@H](C6)C[C@@H](O)[C@@H]6[C@@H]7C[C@H](O)[C@]7(C)[C@@H]([C@H](C)CCC(=O)O)CC[C@@H]67)c5)CC[C@]4(C)[C@H]3C[C@H](O)[C@]12C [Example 21] ?
0.29

Lookup C[C@H](CCC(=O)O)[C@H]1CC[C@H]2[C@@H]3[C@H](O)C[C@@H]4C[C@@H](NC(=O)CCOCCCOCC(C)(COCCCOCCC(=O)N[C@H]5CC[C@@]6(C)[C@@H](C5)C[C@@H](O)[C@@H]5[C@@H]6C[C@H](O)[C@]6(C)[C@@H]([C@H](C)CCC(=O)O)CC[C@@H]56)COCCCOCCC(=O)N[C@H]5CC[C@@]6(C)[C@@H](C5)C[C@@H](O)[C@@H]5[C@@H]6C[C@H](O)[C@]6(C)[C@@H]([C@H](C)CCC(=O)O)CC[C@@H]56)CC[C@]4(C)[C@H]3C[C@H](O)[C@]12C [Example 11]
0.29

Where do the numbers come from? From patent US5428182A.
